Data provenance: ChEMBL document CHEMBL4507326

target: Receptor-interacting serine/threonine-protein kinase 2 (Homo sapiens)
Sequence (O43353 whole entry): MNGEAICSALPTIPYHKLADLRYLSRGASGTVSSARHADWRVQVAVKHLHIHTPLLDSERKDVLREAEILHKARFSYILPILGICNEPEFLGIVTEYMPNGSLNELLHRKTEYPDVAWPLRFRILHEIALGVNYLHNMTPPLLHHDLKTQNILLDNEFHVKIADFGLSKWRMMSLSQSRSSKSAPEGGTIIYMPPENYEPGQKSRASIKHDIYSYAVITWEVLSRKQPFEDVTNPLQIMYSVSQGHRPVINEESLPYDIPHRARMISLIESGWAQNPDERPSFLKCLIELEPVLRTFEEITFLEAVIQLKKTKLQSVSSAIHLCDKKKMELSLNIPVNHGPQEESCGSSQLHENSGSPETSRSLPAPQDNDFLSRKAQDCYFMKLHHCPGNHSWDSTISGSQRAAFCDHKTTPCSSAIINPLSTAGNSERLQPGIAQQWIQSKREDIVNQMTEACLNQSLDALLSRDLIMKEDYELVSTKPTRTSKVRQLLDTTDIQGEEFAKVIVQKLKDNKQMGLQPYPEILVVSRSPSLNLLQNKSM
pIC50: −log10 of the molar value.
endpoint label: pIC50

INSERT INTO results (item_smiles, value) VALUES
  ('CN1C(=O)[C@@H](N2CCc3c(nn(Cc4ccccc4)c3Br)C2=O)COc2ccccc21', 6.00);

====

target: Cyclin-dependent kinase 3 (Homo sapiens)
Sequence (Q00526 whole entry): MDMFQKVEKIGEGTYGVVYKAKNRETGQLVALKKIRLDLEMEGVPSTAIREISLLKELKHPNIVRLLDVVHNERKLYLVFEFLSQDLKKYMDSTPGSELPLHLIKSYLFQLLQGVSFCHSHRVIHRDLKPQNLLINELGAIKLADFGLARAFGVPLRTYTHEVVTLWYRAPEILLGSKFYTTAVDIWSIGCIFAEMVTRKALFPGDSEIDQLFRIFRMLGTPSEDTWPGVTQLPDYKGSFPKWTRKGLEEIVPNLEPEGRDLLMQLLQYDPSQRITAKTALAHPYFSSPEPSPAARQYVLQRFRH
pIC50: −log10 of the molar value.
endpoint label: pIC50

INSERT INTO assay_data (item_smiles, value) VALUES
  ('CN1C(=O)[C@@H](N2CCc3c(nn(Cc4ccccc4)c3Br)C2=O)COc2ccccc21', 6.00);

====

target: Serine/threonine-protein kinase Nek5 (Homo sapiens)
Sequence (Q6P3R8 whole entry): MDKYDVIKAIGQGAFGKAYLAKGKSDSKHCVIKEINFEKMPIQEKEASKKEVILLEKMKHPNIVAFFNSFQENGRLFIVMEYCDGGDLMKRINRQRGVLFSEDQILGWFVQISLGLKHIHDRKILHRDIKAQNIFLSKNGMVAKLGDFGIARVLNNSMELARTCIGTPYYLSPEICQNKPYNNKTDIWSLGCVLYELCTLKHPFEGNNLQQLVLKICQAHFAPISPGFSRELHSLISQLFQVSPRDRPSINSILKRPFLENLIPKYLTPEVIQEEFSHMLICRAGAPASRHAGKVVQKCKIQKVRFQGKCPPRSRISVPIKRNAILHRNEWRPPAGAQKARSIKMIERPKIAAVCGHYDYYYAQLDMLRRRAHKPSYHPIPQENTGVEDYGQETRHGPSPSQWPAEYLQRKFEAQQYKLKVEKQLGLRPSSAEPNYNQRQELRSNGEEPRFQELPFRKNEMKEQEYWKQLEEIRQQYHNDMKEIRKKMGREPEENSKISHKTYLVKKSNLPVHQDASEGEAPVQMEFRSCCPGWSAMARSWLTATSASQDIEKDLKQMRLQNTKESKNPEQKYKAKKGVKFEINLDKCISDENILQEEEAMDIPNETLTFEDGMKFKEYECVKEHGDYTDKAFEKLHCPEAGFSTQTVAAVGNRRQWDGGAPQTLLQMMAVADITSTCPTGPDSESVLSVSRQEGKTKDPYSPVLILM
pIC50: −log10 of the molar value.
endpoint label: pIC50

INSERT INTO measurements (item_smiles, target, value) VALUES
  ('CN1C(=O)[C@@H](N2CCc3c(nn(Cc4ccccc4)c3Br)C2=O)COc2ccccc21', 'Serine/threonine-protein kinase Nek5 (Homo sapiens)', 6.00);
